Let's look at some binders and their measured pKd.
- system.under.test: T1, vaginolysin (VLY), recombinant (Gardnerella vaginalis)
- T1 construct: also called recombinant VLY
- assay.method.text: ELISA; indirect ELISA; recombinant purified VLY (5 μg/ml, 50 mM Na-carbonate pH 9.5) coated on MaxiSorp plates; scFv 50 μg/ml to 20 ng/ml, 1 h at RT; detected by anti-His5 MAb and HRP-labelled anti-mouse IgG; apparent Kd = molar concentration at the mid-point of the titration curve
- experimental.parameters: both partners purified
// returns pKd (minus log10 of molar concentration), number only

Reference set (3 entries):
[
  {
    "binder": "anti-VLY scFv 23A2 (VL-VH) (scFv, V domains shown, also called 23A2-derived scFv (variant VL-VH); source: E. coli BL21(DE3), from inclusion bodies, renatured, purified (Ni-NTA); not shown: His6, N-terminal, kept) VH: QVQLEQSGAELVRSGASVKISCKASGYTFPSYNMHWVKQTPGQGLEWIGYIYPGNGVTNYNQKFKGKATLTADTSSSTAYMQISSLTSEDSAVYFCAREEGGNLLWGHFAMDYWGQGTSVTVSS VL: DIVMTQTTLSLPVSLGDQASISCRSSQSLVHSNGNTYLHWYLQKPGQSPKLLIYKVSNRFSGVPDRFSGSGSGTDFTLKISRVEAEDLGVYFCSQSTHVPPTFGGGTKLEIR",
    "pKd": 7.04
  },
  {
    "binder": "anti-VLY scFv 9B4 (VL-VH) (scFv, V domains shown, also called 9B4-derived scFv (variant VL-VH); source: E. coli BL21(DE3), from inclusion bodies, renatured, purified (Ni-NTA); not shown: His6, N-terminal, kept) VH: QVQLEQSGPGLVAPSESLTITCTVSGFSLNSYGVHWVRQPPGKGLEWVGVMWAGGNTSYNSALMSRLSISKDNSKSQVFLKMNSLQTDDTAIYYCARARGAMDYWGQGTSVTVSS VL: DIVMTQTTSHLSVSLGDRVTIACKASAHINNWLAWYQQKPGNAPSLLIAGATGLETGVPSRFSGSGSGKDFTLSISSLQTEDVATYYCQQYWDTPYTFGGGTKLEIR",
    "pKd": 7.96
  },
  {
    "binder": "anti-VLY scFv 9B4 (VH-VL) (scFv, V domains shown, also called 9B4-derived scFv (variant VH-VL); source: E. coli BL21(DE3), from inclusion bodies, renatured, purified (Ni-NTA); not shown: His6, N-terminal, kept) VH: QVQLEQSGPGLVAPSESLTITCTVSGFSLNSYGVHWVRQPPGKGLEWVGVMWAGGNTSYNSALMSRLSISKDNSKSQVFLKMNSLQTDDTAIYYCARARGAMDYWGQGTSVTVSS VL: DIVMTQTTSHLSVSLGDRVTIACKASAHINNWLAWYQQKPGNAPSLLIAGATGLETGVPSRFSGSGSGKDFTLSISSLQTEDVATYYCQQYWDTPYTFGGGTKLEIR",
    "pKd": 7.82
  }
]

Next up:
[Q] Could you share which pKd value was measured for anti-VLY scFv 23A2 (VH-VL) (scFv, V domains shown, also called 23A2-derived scFv (variant VH-VL); source: E. coli BL21(DE3), from inclusion bodies, renatured, purified (Ni-NTA); not shown: His6, N-terminal, kept) VH: QVQLEQSGAELVRSGASVKISCKASGYTFPSYNMHWVKQTPGQGLEWIGYIYPGNGVTNYNQKFKGKATLTADTSSSTAYMQISSLTSEDSAVYFCAREEGGNLLWGHFAMDYWGQGTSVTVSS VL: DIVMTQTTLSLPVSLGDQASISCRSSQSLVHSNGNTYLHWYLQKPGQSPKLLIYKVSNRFSGVPDRFSGSGSGTDFTLKISRVEAEDLGVYFCSQSTHVPPTFGGGTKLEIR ?
[A] 7.01
